Provide the reported IC50 of each item.
Target: Lats1 (Homo sapiens, UniProt O95835)
Construct: purchased Carna 01-123
Sequence (O95835 1-1130): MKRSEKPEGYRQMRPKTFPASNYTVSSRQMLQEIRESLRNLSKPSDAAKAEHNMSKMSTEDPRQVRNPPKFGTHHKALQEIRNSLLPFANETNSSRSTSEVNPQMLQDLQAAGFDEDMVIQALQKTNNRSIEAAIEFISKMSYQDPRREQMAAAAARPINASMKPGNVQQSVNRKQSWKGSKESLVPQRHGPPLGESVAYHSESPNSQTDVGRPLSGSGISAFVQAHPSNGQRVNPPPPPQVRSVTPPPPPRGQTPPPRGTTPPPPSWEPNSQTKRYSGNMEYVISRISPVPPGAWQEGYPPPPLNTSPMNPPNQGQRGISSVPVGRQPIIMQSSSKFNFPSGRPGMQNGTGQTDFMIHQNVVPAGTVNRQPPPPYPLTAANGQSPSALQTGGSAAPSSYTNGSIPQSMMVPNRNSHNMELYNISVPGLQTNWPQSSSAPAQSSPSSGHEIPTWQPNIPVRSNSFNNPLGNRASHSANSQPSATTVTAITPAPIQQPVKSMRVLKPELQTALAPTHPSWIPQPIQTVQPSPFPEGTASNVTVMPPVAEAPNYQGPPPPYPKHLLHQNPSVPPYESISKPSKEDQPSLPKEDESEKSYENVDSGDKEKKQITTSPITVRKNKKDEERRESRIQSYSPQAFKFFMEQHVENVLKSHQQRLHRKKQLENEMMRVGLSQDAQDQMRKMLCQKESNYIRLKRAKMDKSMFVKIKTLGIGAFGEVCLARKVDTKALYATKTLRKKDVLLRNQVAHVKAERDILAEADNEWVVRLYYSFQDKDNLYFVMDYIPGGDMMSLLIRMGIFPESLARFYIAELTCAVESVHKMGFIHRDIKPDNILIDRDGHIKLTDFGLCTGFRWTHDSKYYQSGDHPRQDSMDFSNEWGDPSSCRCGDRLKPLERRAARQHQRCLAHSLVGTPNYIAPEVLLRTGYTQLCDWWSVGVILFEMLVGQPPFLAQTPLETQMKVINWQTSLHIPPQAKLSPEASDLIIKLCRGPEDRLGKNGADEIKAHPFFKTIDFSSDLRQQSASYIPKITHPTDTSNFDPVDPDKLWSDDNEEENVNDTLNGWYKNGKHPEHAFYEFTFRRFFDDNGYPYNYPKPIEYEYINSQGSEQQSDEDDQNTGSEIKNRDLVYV
Assay: In vitro kinase assay (HTRF KinEASE-STK S1) Lats1, 10 uM ATP
Assay type: biochemical

Quick note, IC50 for Cc1cs/c(=N\C(=O)c2c[nH]c3ncccc23)n1Cc1ccccc1 [T49] landed at 2.7 nM

Please fill in: IC50 reported for O=Cc1ccc(Cn2ccs/c2=N\C(=O)c2c[nH]c3ncccc23)cc1 [T48] = 800 nM

// recorded IC50 for CC(c1ccccc1)n1ccs/c1=N\C(=O)c1c[nH]c2ncccc12 (stereo not drawn) [T39] : 1.9 nM

----------
Biological target: Lats1 (Homo sapiens, UniProt O95835)
Construct: purchased Carna 01-123
Test: In vitro kinase assay (HTRF KinEASE-STK S1) Lats1, 2 mM ATP
Format: biochemical
RECORDED_METRIC: IC50 (nM)
Just the number in nM, nothing appended.

// O=C(/N=c1\sccn1Cc1ccccn1)c1c[nH]c2ncccc12 : IC50 value = 11000

Memo: NCc1cccc(-n2ccs/c2=N\C(=O)c2c[nH]c3ncccc23)c1 , reported IC50: 18.6

// field: IC50; key: O=C(/N=c1\sccn1-c1ccc(Cl)cc1)c1c[nH]c2ncccc12 ; value = 44.9

Noted for Cc1cs/c(=N\C(=O)c2c[nH]c3ncccc23)n1Cc1ccccc1 : its IC50 reads 0.5

The reported IC50 of the molecule Nc1cc(-n2ccs/c2=N\C(=O)c2c[nH]c3ncccc23)ccn1 was 329
